TARGET SYSTEM: T1, recombinant annexin A5 (UniProt P08758 1-320, Alexa Fluor 647 conjugated (the labelled copy held at a constant 20 µg/ml; position not stated); the titrated copy of the dimerisation assay is unlabelled)
T1 construct: annexin A5 (annexin V), recombinant; The products were matched from the reagents list: the Alexa Fluor 647 conjugate is likely Biolegend 640912 and the unlabelled protein likely Novus NBP1-30265; Labelled and unlabelled copies are written as one molecule for the self-association; also called annexin V; annexin A5 conjugated to Alexa Fluor 647; source: recombinant, bought (reagents list: annexin-V …)
T1 sequence (looked up): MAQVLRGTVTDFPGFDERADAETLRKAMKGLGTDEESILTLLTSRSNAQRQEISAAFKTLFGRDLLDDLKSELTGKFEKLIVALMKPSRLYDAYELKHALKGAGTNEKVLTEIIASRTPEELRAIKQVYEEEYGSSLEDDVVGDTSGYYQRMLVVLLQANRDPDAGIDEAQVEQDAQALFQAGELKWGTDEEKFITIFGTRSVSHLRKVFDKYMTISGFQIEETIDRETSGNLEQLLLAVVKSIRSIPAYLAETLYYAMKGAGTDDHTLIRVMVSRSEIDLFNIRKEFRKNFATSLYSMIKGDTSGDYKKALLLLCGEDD
METHOD DESCRIPTION: MST; Nanotemper Monolith NT.115; constant annexin A5-Alexa Fluor 647 (20 µg/ml) mixed with cinnamycin from 7×10^−8 mM to 1 mM, 1 h at room temperature
CONDITION PARAMETERS: both partners purified

>  <BINDER>
CRQSCSFGPFTFVCDGNTK (peptide, UniProt P29827 60-78, looked up, cinnamycin, a 19-amino-acid lantibiotic (the mature peptide cut from its precursor); source: bought: Santa Cruz Biotechnology (sc-391464)) [cinnamycin]

>  <Kd>
614 µM

$$$$
